Listed compounds paired with reported CC50
assay: in vitro; settings: human

Consider the following illustrative entries.
>  <compound>
CCOc1nc(N)nc2c1ncn2[C@@H]1O[C@H](COP(=O)(N[C@@H](C)C(=O)OC(C)C)Oc2ccccc2)[C@@H](O)[C@@]1(C)Cl (single isomer, unassigned) [Compound 17ii Diastereomer 1]

>  <reported>
> 50 µM

$$$$
>  <compound>
CC(C)(CO)C(=O)SCCOP1(=O)OC[C@H]2O[C@@H](n3ccc(=O)[nH]c3=O)[C@](C)(Cl)[C@@H]2O1 (single isomer, unassigned) [Compound 46 Single Diastereoisomer]

>  <reported>
> 50 µM

$$$$

INPUT: I'd like to know its CC50. The compound in question is CC(C)(C)C(=O)SCCOP1(=O)OC[C@H]2O[C@@H](n3ccc(N)nc3=O)[C@](C)(Cl)[C@@H]2O1 (single isomer, unassigned) [Compound 61 Diastereomer 1]
OUTPUT: > 50 µM

INPUT: Also check C[C@@]1(Cl)[C@H](O)[C@@H](CO)O[C@H]1n1cc(F)c2c(N)ncnc21 [Compound 303]
OUTPUT: > 50 µM

INPUT: // query: CC(C)OC(=O)[C@H](C)NP(=O)(OC[C@H]1O[C@@H](n2ccc3c(N)ncnc32)[C@](C)(Cl)[C@@H]1O)Oc1ccccc1 (single isomer, unassigned) [Compound 208ii Diastereomer 1]
OUTPUT: > 50 µM
